Taken from PubChem BioAssay (NCI).

Test system: SK-MEL-5 melanoma
PROCEDURE_SUMMARY: NCI-60 one-dose screen, 48 h (100 = growth as untreated, 0 = no growth, -100 = all killed)
MEASUREMENT_PARAMETERS: 10 µM unless noted
About 83,000 compounds went through this panel and 20% of them were active in at least one assay; those are over-represented in the sample as a whole.
Please enter t where growth is greater than or equal to 70%, and f where it is lower.

{"columns": ["COMPOUND", "STUDY_TARGET", "GROUP_LABEL"],
 "data": [
  ["C=CCn1c(C)nc2cc(Nc3nc(N4CCCC4)nc4ccccc34)ccc21", "SK-MEL-5 melanoma", "f"],
  ["Cc1ccc(-n2nc3c(c(C#N)c2=O)CC(c2ccccc2Cl)C([N+](=O)[O-])=C3O)cc1 (centres undefined)", "SK-MEL-5 melanoma", "t"],
  ["Cc1ccc2nc(NC(=O)CSc3nc(Nc4ccc([N+](=O)[O-])cc4)c(C#N)c(-c4ccccc4)n3)sc2c1", "SK-MEL-5 melanoma", "t"],
  ["O=C(c1ccccc1)c1c(/C=C/c2ccc(Cl)cc2)nc2ccccc2c1/C=C/c1cccs1", "SK-MEL-5 melanoma", "t"],
  ["COc1ccccc1NC(=O)N/C(N)=N/c1nc2ccccc2s1", "SK-MEL-5 melanoma", "f"],
  ["COC(=O)[C@]12CC[C@@H](C)[C@H](C)[C@@H]1C1=CC[C@@H]3[C@@]4(C)C(C=O)=C[C@@](C)(COC(C)=O)[C@@H]4[C@H](O)C[C@@]3(C)[C@]1(C)CC2", "SK-MEL-5 melanoma", "f"],
  ["O=C(O)c1ccc2c(c1)CCC2", "SK-MEL-5 melanoma", "t"],
  ["CCc1ccccc1-n1c(N)c(C#N)c(-c2ccc(N(C)C)cc2)c(C#N)c1=O", "SK-MEL-5 melanoma", "t"],
  ["CC1=C([Se]CC(OC(=O)[C@@H](CO)NC(=O)OC(C)(C)C)C(=O)NC(C)(C)C)C(=O)c2ccccc2C1=O (some centres undefined)", "SK-MEL-5 melanoma", "f"],
  ["COc1ccc(C2C(c3nn[nH]n3)=C(N)Oc3c2ccc2ccccc32)cc1 (centres undefined)", "SK-MEL-5 melanoma", "f"],
  ["COc1ccc(-c2nc3c(c(=O)n2C(C)=O)C(c2ccc(Cl)cc2)c2sc4c(Cl)cccc4c2O3)cc1 (centres undefined)", "SK-MEL-5 melanoma", "f"],
  ["Cc1ccc(Cc2cnc(NC(=O)c3ccc4noc(-c5ccccc5)c4c3)s2)cc1", "SK-MEL-5 melanoma", "t"],
  ["C=C(C)[C@@H]1CC=C2c3sc(-c4ccc(C)cc4)nc3C[C@@H](C)[C@]2(C)C1", "SK-MEL-5 melanoma", "t"],
  ["Cc1ccc(C(=NN=C(N)N)c2ccc(C)cc2)cc1", "SK-MEL-5 melanoma", "f"],
  ["O=C(/C=C/c1cccc(O)c1)c1cccc(-n2cc(-c3ccc4ccccc4c3)[nH]c2=O)c1", "SK-MEL-5 melanoma", "f"],
  ["COc1cc(C(=O)/C=C/c2c(-c3ccc(F)cc3)nc3sc(C)cn23)cc(OC)c1OC", "SK-MEL-5 melanoma", "f"],
  ["CC(=O)C(C)Cc1cc2c(cc1C)C(C)(C)CCC2(C)C (centres undefined)", "SK-MEL-5 melanoma", "t"],
  ["COc1cc(-c2n/c(=C\\c3c(O)[nH]c4ccc(Cl)cc34)cc3c2=Nc2ccccc2-3)cc(OC)c1OC", "SK-MEL-5 melanoma", "f"]
]}
